assay: Biological distribution of L-[18F]FET in F98 glioma-bearing Fischer 344 rat; conditions: in vivo, iv, Pancreas, 120 min after injection via tail vein, read-out: accumulated radioactivity
reported.metric: tissue uptake at 2 h (%ID/g)
Write the value in %ID/g as a bare number.

// tissue uptake at 2 h lookup, molecule = N[C@@H](Cc1ccc(OCC[18F])cc1)C(=O)O [L-[^18F]FET, O-(2-[^18F]fluoroethyl)-L-Tyrosine] , result: 2.24

---

assay: Biological distribution of L-[18F]FET in F98 glioma-bearing Fischer 344 rat; conditions: in vivo, iv, Lung, 90 min after injection via tail vein, read-out: accumulated radioactivity
reported.metric: tissue uptake at 1.5 h
Give me the value, and tack the unit on after it.

Reported tissue uptake at 1.5 h for N[C@@H](Cc1ccc(OCC[18F])cc1)C(=O)O [L-[^18F]FET, O-(2-[^18F]fluoroethyl)-L-Tyrosine] was 0.45 %ID/g

---

assay: Biological distribution of L-[18F]FET in F98 glioma-bearing Fischer 344 rat; conditions: in vivo, iv, Right brain, 60 min after injection via tail vein, read-out: accumulated radioactivity
reported.metric: tissue uptake at 1 h (%ID/g)
Give the quantity in %ID/g, number only.

Recorded result, N[C@@H](Cc1ccc(OCC[18F])cc1)C(=O)O [L-[^18F]FET, O-(2-[^18F]fluoroethyl)-L-Tyrosine] , tissue uptake at 1 h: 0.34

---

Assay: Biological distribution of L-[18F]FET in F98 glioma-bearing Fischer 344 rat
Settings: in vivo, iv, Right brain, 120 min after injection via tail vein, read-out: accumulated radioactivity
From the text: • (1) Total of twenty Fischer 344 male rats will be assessed in vivo for L-[^18F]FET biological distribution. […] Alone skull base insert scissors deeply to the front edge of cranial cavity in order to remove left-brain, right-brain and brain tumor. • (7) Weight all organ samples; measure radioactivity with γ-counter and convert to %ID/g (% injection dose/g organ) of each organ for estimate the biological distribution of L-[^18F]FET. […]
reported.metric: tissue uptake at 2 h (%ID/g)
Lab book: enter the figure in %ID/g, no units written.

For this compound ( N[C@@H](Cc1ccc(OCC[18F])cc1)C(=O)O [L-[^18F]FET, O-(2-[^18F]fluoroethyl)-L-Tyrosine] ), measured tissue uptake at 2 h is 0.34

---

assay: Biological distribution of L-[18F]FET in F98 glioma-bearing Fischer 344 rat; details: in vivo, iv, Muscle, 120 min after injection via tail vein, read-out: accumulated radioactivity
reported.metric: tissue uptake at 2 h (%ID/g)
Give the value in %ID/g but do not write %ID/g after it.

Per the records, this compound ( N[C@@H](Cc1ccc(OCC[18F])cc1)C(=O)O [L-[^18F]FET, O-(2-[^18F]fluoroethyl)-L-Tyrosine] ) has tissue uptake at 2 h equal to 0.37

---

test: Biological distribution of L-[18F]FET in F98 glioma-bearing Fischer 344 rat; conditions: in vivo, iv, Right brain, 90 min after injection via tail vein, read-out: accumulated radioactivity
reported.metric: tissue uptake at 1.5 h

Note to self: tissue uptake at 1.5 h recorded for N[C@@H](Cc1ccc(OCC[18F])cc1)C(=O)O [L-[^18F]FET, O-(2-[^18F]fluoroethyl)-L-Tyrosine] was 0.48 %ID/g

---

experiment: Biological distribution of L-[18F]FET in F98 glioma-bearing Fischer 344 rat; details: in vivo, iv, Pancreas, 30 min after injection via tail vein, read-out: accumulated radioactivity
reported.metric: tissue uptake at 0.5 h

Record N[C@@H](Cc1ccc(OCC[18F])cc1)C(=O)O [L-[^18F]FET, O-(2-[^18F]fluoroethyl)-L-Tyrosine] . Reported tissue uptake at 0.5 h: 1.76 %ID/g
